Tested on: HEK-293T
test_description: Incucyte cell viability with HEK293T; also: unitless GR value; below 1 slowed growth and below 0 cell loss
Type: toxicity, cell-based
protocol_conditions: human, 0 h, 10 µM, compound concentration 10 uM, replicate number 2
Ranges used to classify Growth Rate: low (below -0.5), middle (-0.5 to below 0.3), high (0.3 or more)

INSERT INTO results (compound, group) VALUES
  ('CN(C)C/C=C/C(=O)Nc1ccc(C(=O)Nc2cccc(Nc3ncc(Cl)c(-c4c[nH]c5ccccc45)n3)c2)cc1', 'low'),
  ('CN1CCN(c2nc(N)c3ccccc3n2)CC1', 'high'),
  ('O=C(N[C@H]1CCCCC/C=C\C2C[C@@]2(C(=O)O)NC(=O)[C@@H]2C[C@@H](Oc3ccncc3)CN2C1=O)OC1CCCC1 (stereo partly specified)', 'low'),
  ('CN(C)C(=O)Cn1cc(-c2ccc(-c3cncc4ccccc34)cc2)cn1', 'high'),
  ('CC(C)(C)NC(=O)c1cncn1C1CCN(c2ccc(-c3nnc(C(F)(F)F)o3)cn2)CC1', 'middle'),
  ('CN(C)[C@H]1C[C@H](n2cnc(-c3ccc(F)cn3)c2-c2ccnc3[nH]ccc23)C1', 'low'),
  ('Cc1c(N2CCNCC2)nc2ccc(Br)cc2c1C(=O)NC[C@H](CCC(=O)O)c1ccccc1Cl', 'middle'),
  ('NC(=O)C1CCCc2c1[nH]c1ccc(Cl)cc21 (stereo unspecified)', 'low'),
  ('COC(=O)c1sccc1S(=O)(=O)Nc1ccc(Nc2ccccc2)cc1OC', 'low'),
  ('Cc1cc(OC2CCS(=O)(=O)CC2)cc(C)c1-c1cccc(COc2ccc(CCC(=O)O)c(F)c2)c1', 'middle'),
  ('CC(C)Oc1ccc(-c2cnc3c(-c4ccnc5ccccc45)cnn3c2)cc1', 'high'),
  ('Cc1cc(NC(=O)c2cccc(NC(=O)/C=C/CN(C)C)c2)ccc1Nc1nccc(-c2cccnc2)n1', 'high'),
  ('CCCCC[C@H](O)/C=C/[C@H]1[C@H](O)CC(=O)[C@@H]1CCCCCCC(=O)O', 'high'),
  ('CC1(C)OC(=O)c2ccc(Nc3ncc(-c4nnco4)c(N[C@H](CO)c4ccccc4)n3)cc21', 'middle'),
  ('CS(=O)(=O)NC(=O)CCC/C=C\C[C@H]1C(=O)C[C@@H](O)[C@@H]1/C=C/[C@@H](O)COc1ccccc1', 'high'),
  ('Cc1c(N2CCCC2)nc2ccc(Br)cc2c1C(=O)NC[C@H](CCC(=O)O)c1ccccc1Cl.Cl.O', 'middle'),
  ('COc1c(OCCCN2CCOCC2)ccc2c1N=C(NC(=O)c1cnc(N)nc1)N1CCN=C21', 'low'),
  ('Cc1cccc(-c2[nH]c(CNc3ccccc3F)nc2-c2ccc3ncnn3c2)n1', 'middle'),
  ('NC(=O)c1cc(-c2ccnc(NC3CCCCC3)c2)nc(N2CCNCC2)c1', 'low'),
  ('O=C([O-])c1cc2cc(Cc3cccnc3)ccc2o1.[Na+]', 'middle'),
  ('COC1(C#Cc2ccc(Cl)c(-c3ncc4c(n3)-c3sc(NC(C)=O)nc3CC4)c2)CCN(C)CC1', 'low'),
  ('Cn1c(C2(NC(=O)c3ccc4c(C5CCCC5)c(-c5ncc(Br)cn5)n(C)c4c3)CCC2)nc2ccc(/C=C/C(=O)[O-])cc21.[Na+] [DELEOBUVIR SODIUM]', 'high'),
  ('CNCc1ccc(-c2cc(-c3nc(-c4ccc(S(=O)(=O)C(C)C)cc4)cnc3N)on2)cc1', 'low'),
  ('Cc1cc(C)cc(C(=O)NOCCCCCC(=O)NO)c1', 'high'),
  ('CCc1nc(C2CCC2)n2nc(-c3ccccc3)[nH]c(=O)c12', 'middle'),
  ('CO[C@H](C)CN1CC[C@]2(C)c3cccc(O)c3C[C@H]1C2(C)C.Cl', 'middle'),
  ('Nc1ccc(-c2cnc(N)c(-c3ccc(Cl)cc3)c2)cn1', 'middle'),
  ('CN(C(=O)c1cnn2cccnc12)c1cc2c(cc1N1CCOCC1)C(=O)N(C[C@@H](F)C(C)(C)O)C2', 'high'),
  ('CC(=O)Nc1cccc(-n2c(=O)n(C3CC3)c(=O)c3c(Nc4ccc(I)cc4F)n(C)c(=O)c(C)c32)c1', 'low'),
  ('CC(=O)O.NCCCc1c(C(=O)O)[nH]c2ccc(C(=O)Nc3ccccc3)cc12', 'high'),
  ('CCn1c(CNC(=O)c2nc(Cl)cnc2N)[n+](CC)c2ccc(C(=O)N(C)CCN(C)C)cc21.[Cl-]', 'high'),
  ('COc1cc2ncnc(N[C@H](C)c3ccccc3)c2cc1OC1CCN(S(C)(=O)=O)CC1.Cl', 'middle'),
  ('N=C(N)Nc1cc(C2CCNCC2)cc(C(F)(F)F)c1.O=C(O)C(F)(F)F.O=C(O)C(F)(F)F', 'middle'),
  ('COc1cc2ncnc(Nc3ccc(F)c(Cl)c3)c2cc1OCCN(C)C[C@H](C)O', 'low'),
  ('C[C@@H]1C[C@H](C)CN(c2ncc(Cl)c(Nc3ccc4c(c3)cc(OC(C)(C)C(=O)O)c(=O)n4C)n2)C1', 'high'),
  ('O=C(Nc1ccccc1C(=O)O)c1cc(S(=O)(=O)c2ccccc2)ccc1Cl', 'low');

----------
Each record here notes measured Growth Rate.
System: U2OS
test_description: Incucyte cell viability with U2OS; also: unitless GR value; below 1 slowed growth and below 0 cell loss
Assay type: toxicity, cell-based
protocol_conditions: human, 18 h, 10 µM, compound concentration 10 uM, replicate number 2
parameter: Growth Rate

INSERT INTO measurements (molecular_string, measured) VALUES
  ('Cc1nn(C)c(COc2ccc(N3CCN(S(=O)(=O)N(C)C)CC3)cc2)c1-c1cccc2c(CCCOc3cccc4ccccc34)c(C(=O)O)n(CCN3CCOCC3)c12', 0.92),
  ('O=C(O)C[C@H]1CC[C@H](c2ccc(NC(=O)c3nnc(Nc4ccc(F)c(F)c4)o3)cc2)CC1', 0.93),
  ('CCO[C@H](COc1ccc(C(F)(F)F)cc1)CSc1ccc(OCC(=O)[O-])c(C)c1.[Na+]', 0.92),
  ('CC(C)(C)c1cnc(CSc2cnc(NC(=O)C3CCNCC3)s2)o1', 0.04);

----------
This listing pairs molecules with measured Growth Rate.
Tested on: U2OS
test_description: Incucyte cell viability with U2OS; also: unitless GR value; below 1 slowed growth and below 0 cell loss
Assay type: toxicity, cell-based
protocol_conditions: human, 18 h, 10 µM, compound concentration 10 uM, replicate number 1
parameter: Growth Rate

INSERT INTO results (molecular_string, measured) VALUES
  ('NC(=O)c1cc2c(-c3ccc(C(=O)NCc4ccnc(Cl)c4)s3)cccc2s1', 0),
  ('C[C@@H](CN1CC[C@@]2(C)c3cccc(O)c3C[C@@H]1C2(C)C)OCc1ccccc1.Cl', 0.81),
  ('O=C(O)CCCCN(CCc1ccccc1OCc1ccc(CCc2ccccc2)cc1)Cc1ccc(C(=O)O)cc1', 0.83),
  ('CS(=O)(=O)CCNCc1ccc(-c2ccc3ncnc(Nc4ccc(OCc5cccc(F)c5)c(Cl)c4)c3c2)o1', 0.86);

----------
Tested on: Fibroblast
test_description: Incucyte cell viability with human fibroblast; also: unitless GR value; below 1 slowed growth and below 0 cell loss
Type: toxicity, cell-based
protocol_conditions: 24 h, 10 µM, compound concentration 10 uM, replicate number 1
parameter: Growth Rate

INSERT INTO assay_data (molecular_string, target, measured) VALUES
  ('C#Cc1cnc2[nH]cc(-c3cccc4c3CCN4C(=O)[C@@H]3CCCN3C#N)c2c1', 'Fibroblast', -0.36),
  ('C[C@]12CC[C@@H]3c4ccc(O)cc4CC[C@H]3[C@@H]1C[C@H]1OC(=O)C[C@]12O', 'Fibroblast', 0.77),
  ('COc1cc(/C=C(\C#N)C(=O)Nc2nnc(C(F)(F)F)s2)ccc1OCc1ccc(C(F)(F)F)cc1C(F)(F)F', 'Fibroblast', 0.17),
  ('COc1c(OCCCN2CCOCC2)ccc2c1N=C(NC(=O)c1cnc(N)nc1)N1CCN=C21', 'Fibroblast', 0.41),
  ('Cc1cccc([C@H]2CC[C@@H](N3CCN(c4cccnc4)CC3)CC2)c1.O=C(O)C(F)(F)F.O=C(O)C(F)(F)F', 'Fibroblast', 0.58),
  ('COc1cc(C(=O)NCCOCCOCCOCC(=O)N[C@H](C(=O)N2C[C@H](O)C[C@H]2C(=O)NCc2ccc(-c3scnc3C)cc2)C(C)(C)C)ccc1Nc1ncc(C(F)(F)F)c(Oc2cccc3c2C(=O)CC3)n1', 'Fibroblast', 0.14),
  ('O=C(Nc1ccc(OC(F)(F)Cl)cc1)c1cnc(N2CC[C@@H](O)C2)c(-c2ccn[nH]2)c1', 'Fibroblast', 0.35),
  ('Cc1ccc(NC(=O)c2ccc(CN3CC[C@H](N(C)C)C3)c(C(F)(F)F)c2)cc1Nc1nccc(-c2cncnc2)n1', 'Fibroblast', 0.14),
  ('CC(=O)N1CCC(c2ccc(C(=O)NC(=N)N)cc2C(F)(F)F)CC1', 'Fibroblast', 0.8),
  ('Cn1nc(-c2ccc(C(N)=O)cc2)c2ccccc2c1=O', 'Fibroblast', 1),
  ('COc1cnccc1Nc1nc(-c2nn(Cc3c(F)cc(OCCO)cc3F)c3ccccc23)ncc1OC', 'Fibroblast', -0.14),
  ('CC(C)(C)c1ccc2c(c1)CC[C@H]2NC(=O)Nc1cccc2[nH]ncc12', 'Fibroblast', 0.79),
  ('CC(C)c1cnc(NC(=O)Cc2ccccc2)s1', 'Fibroblast', 0.92),
  ('CC(C)(C)c1ccc(-c2coc3ccc(-c4cn[nH]c4)nc23)cc1', 'Fibroblast', 0.94),
  ('CNC(=O)COc1cc2cc(Nc3nc(N4C[C@H](C)C[C@H](C)C4)ncc3Cl)ccc2n(C)c1=O', 'Fibroblast', 0.99),
  ('Clc1cccc(-n2nnnc2NCc2ccccc2Oc2ccccn2)c1Cl', 'Fibroblast', 0),
  ('COc1ccc(S(=O)(=O)N2CCOCC2)cc1Nc1ccc2c(n1)N(C1CCN(C)CC1)[C@H](C)C(=O)N2C', 'Fibroblast', 0.86);
